system: Huh-7; assay: Cytotoxicity against human HuH7 cells assessed as reduction in cell viability; assay type: cell-based
Kindly apply the following: True if CC50 is less than 10 µM, False in every other case.

Worked set:
[
  {
    "MOLECULE": "CC(C)C[C@H](NC(=O)[C@H](Cc1cccc2ccccc12)NC(=O)OCc1ccccc1)C(=O)N[C@H](CO)CNC(=O)N1CCC1",
    "CATEGORY_LABEL": "False"
  },
  {
    "MOLECULE": "CC(C)C[C@H](NC(=O)[C@H](Cc1cccc2ccccc12)NC(=O)OCc1ccccc1)C(=O)N[C@@H](C[C@@H]1CCCNC1=O)C(=O)C(F)(F)F",
    "CATEGORY_LABEL": "False"
  }
]

API: query returns whether the molecule falls strictly under 10 µM in CC50. Query: "CC(C)C[C@H](NC(=O)[C@H](Cc1cccc2ccccc12)NC(=O)OCc1ccccc1)C(=O)N[C@H](C=O)C[C@@H]1CCCNC1=O"
False

API: query returns whether the molecule falls strictly under 10 µM in CC50. Query: CC(C)C[C@H](NC(=O)[C@H](Cc1cccc2ccccc12)NC(=O)OCc1ccccc1)C(=O)N[C@@H](C[C@@H]1CCCNC1=O)C(O)S(=O)(=O)O (stereo partly drawn)
False

API: query returns whether the molecule falls strictly under 10 µM in CC50. Query: "CC(C)C[C@H](NC(=O)[C@H](Cc1cccc2ccccc12)NC(=O)OCc1ccccc1)C(=O)N[C@H](CO)Cn1ccnn1"
True

API: query returns whether the molecule falls strictly under 10 µM in CC50. Query: "CC(C)C[C@H](NC(=O)[C@H](Cc1cccc2ccccc12)NC(=O)OCc1ccccc1)C(=O)N[C@H](CS)C[C@@H]1CCNC1=O"
False

API: query returns whether the molecule falls strictly under 10 µM in CC50. Query: "CC(C)C[C@H](NC(=O)[C@H](Cc1cccc2ccccc12)NC(=O)OCc1ccccc1)C(=O)N[C@H](C=O)C[C@@H]1CCNC1=O"
False

API: query returns whether the molecule falls strictly under 10 µM in CC50. Query: "CC(C)C[C@H](NC(=O)[C@H](Cc1cccc2ccccc12)NC(=O)OCc1ccccc1)C(=O)N[C@H](/C=C(\C#N)C(N)=O)C[C@@H]1CCCNC1=O"
True

###

Target: Protease (Norovirus Hu/GII.4-2002/WeertE022/2002/NL, UniProt G1FEK8)
Sequence (G1FEK8 whole entry): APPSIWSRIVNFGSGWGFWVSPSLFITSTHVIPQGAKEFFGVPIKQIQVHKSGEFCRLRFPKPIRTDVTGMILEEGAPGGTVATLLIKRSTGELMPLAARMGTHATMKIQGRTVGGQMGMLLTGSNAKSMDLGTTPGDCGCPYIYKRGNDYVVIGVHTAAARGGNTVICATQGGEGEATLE
METRIC: IC50 (µM)
Note: unit µM is implicit; provide only the numeric part.

[
  {
    "MOLECULE": "CC(C)C[C@H](NC(=O)[C@H](Cc1cccc2ccccc12)NC(=O)OCc1ccccc1)C(=O)N[C@@H](C[C@@H]1CCCNC1=O)C(O)S(=O)(=O)O (some centres undefined)",
    "METRIC": "IC50",
    "UNITS_OF_MEASURE": "µM",
    "MEASURED": 2.63
  }
]

Value lookup for IC50; key = "CC(C)C[C@H](NC(=O)[C@H](Cc1cccc2ccccc12)NC(=O)OCc1ccccc1)C(=O)N[C@H](C=O)C[C@@H]1CCCNC1=O"
0.15

Value lookup for IC50; key = "CC(C)C[C@H](NC(=O)[C@H](Cc1cccc2ccccc12)NC(=O)OCc1ccccc1)C(=O)N[C@H](/C=C(\C#N)C(N)=O)C[C@@H]1CCCNC1=O"
1.17

Value lookup for IC50; key = "CC(C)C[C@H](NC(=O)[C@H](Cc1cccc2ccccc12)NC(=O)OCc1ccccc1)C(=O)N[C@H](CO)CCC(=O)N1CCC1"
0.502

Value lookup for IC50; key = "CC(C)C[C@H](NC(=O)[C@H](Cc1cccc2ccccc12)NC(=O)OCc1ccccc1)C(=O)N[C@@H](C[C@@H]1CCCNC1=O)C(=O)C(F)(F)F"
2.63
